Source listed as PubChem BioAssay AID720504.

TESTED TARGET: Serine/threonine-protein kinase PLK1 (Homo sapiens) (UniProt P53350)
Sequence (P53350 whole entry, looked up, the tested form may be a part): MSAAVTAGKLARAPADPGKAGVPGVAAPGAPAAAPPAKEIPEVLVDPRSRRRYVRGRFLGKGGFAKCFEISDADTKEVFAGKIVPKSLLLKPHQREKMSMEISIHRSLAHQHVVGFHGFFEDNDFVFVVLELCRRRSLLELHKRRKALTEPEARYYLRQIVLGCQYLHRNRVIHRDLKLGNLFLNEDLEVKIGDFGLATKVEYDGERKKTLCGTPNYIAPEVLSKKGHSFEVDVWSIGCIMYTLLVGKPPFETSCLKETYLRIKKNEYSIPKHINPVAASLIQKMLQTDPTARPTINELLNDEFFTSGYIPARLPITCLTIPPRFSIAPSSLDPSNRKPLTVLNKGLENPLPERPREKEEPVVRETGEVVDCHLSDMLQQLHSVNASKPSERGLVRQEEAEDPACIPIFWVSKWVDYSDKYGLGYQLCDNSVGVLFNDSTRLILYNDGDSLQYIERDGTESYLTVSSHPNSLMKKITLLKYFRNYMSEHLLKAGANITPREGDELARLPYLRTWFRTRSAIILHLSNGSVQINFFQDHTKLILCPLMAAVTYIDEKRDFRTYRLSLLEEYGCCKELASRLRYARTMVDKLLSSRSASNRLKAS
ASSAY NAME: qHTS for Inhibitors of PLK1-PDB (polo-like kinase 1 - polo-box domain): Primary Screen; note: series mostly up to about 57 µM; % is set by controls: 0 for no effect and ±100 for the full control effect; nearly all actives have a fitted effect of over 65% in size
TEST CONDITIONS: Plk1 PBD binding of FITC phosphopeptide, fluorescence polarization
The whole screen tested about 360,000 compounds, of which about 10,000 (2.8%) were called active. About 4% were inconclusive and are not listed. Shown is part of a subset that was picked to be rich in actives.
Exercise: state measured max response, negative = inhibition for each of the compounds provided.
Answer with a number only, understood to be in %.

Give me measured max response, negative = inhibition, please, for this compound: Cc1cccc(CN2CCN(C3CN(Cc4cn(Cc5ccccc5F)nn4)S(=O)(=O)C3)CC2)c1 (configuration not stated) 3.36

Give me measured max response, negative = inhibition, please, for this compound: Clc1ccccc1Nc1nc(NCc2cccs2)nc2ccsc12 0.746

Give me measured max response, negative = inhibition, please, for this compound: N#Cc1ccc(C(C(=O)NCc2ccccc2)n2c(=O)c(-c3ccco3)nc3ccccc32)cc1 (configuration not stated) -22.3

Give me measured max response, negative = inhibition, please, for this compound: Cc1snc(SCc2c(F)cccc2Cl)c1C#N -3.96

Give me measured max response, negative = inhibition, please, for this compound: Cn1c(Cn2nnc3ccccc32)nnc1SCC(=O)c1ccccc1F -9.05

Give me measured max response, negative = inhibition, please, for this compound: Fc1ccc(COc2ccc(-c3nnco3)cc2)cc1 2.81

Give me measured max response, negative = inhibition, please, for this compound: CC1(C(=O)Nc2ccccc2Br)CCN1C(=O)CC1CC1 (configuration not stated) -11.1

Give me measured max response, negative = inhibition, please, for this compound: C/C(Cn1nnc2ccccc21)=N\OC(=O)c1cc(F)c(F)cc1Cl -15

Give me measured max response, negative = inhibition, please, for this compound: O=S(=O)(c1ccc(-c2ccccc2)cc1)N1CCCC1 -5.48

Give me measured max response, negative = inhibition, please, for this compound: CC(Sc1nnnn1C)C(=O)NC(=O)NC1CCCCC1 (configuration not stated) -1.5

Give me measured max response, negative = inhibition, please, for this compound: COc1ccc(N(CC(=O)NCC2CCCO2)C(=O)CCC(=O)Nc2nccs2)c(OC)c1 (configuration not stated) -9.55

Give me measured max response, negative = inhibition, please, for this compound: COc1ccc(S(=O)(=O)N2CCOCC2)c(C)c1C -1.42

Give me measured max response, negative = inhibition, please, for this compound: Cc1cc(C)c(C#N)c(SCc2ccc3c(c2)OCO3)n1 -1.63

Give me measured max response, negative = inhibition, please, for this compound: CC(=O)Nc1cccc(-c2cc3nc(NCc4cccnc4)n(C)c(=O)c3s2)c1 -0.405

Give me measured max response, negative = inhibition, please, for this compound: N#CCCN(C(=O)Nc1ccc(Cl)c(Cl)c1)C1CCCCC1 9.26

Give me measured max response, negative = inhibition, please, for this compound: COc1ccccc1C1C(C#N)=C(N)Oc2c1c(-c1ccccc1)nn2-c1ccccc1 (configuration not stated) -0.276

Give me measured max response, negative = inhibition, please, for this compound: O=C(CSc1nnnn1C1CCCC1)N1CCCCC1 -1.23

Give me measured max response, negative = inhibition, please, for this compound: Cn1c2c(c(=O)n(C)c1=O)C(c1cccc(F)c1)C(C#N)=C(N)O2 (configuration not stated) -22.7

Give me measured max response, negative = inhibition, please, for this compound: O=S1(=O)C[C@@H](N2CCN(CCO)CC2)[C@H](COCc2ccccc2)N1 -14.5

Give me measured max response, negative = inhibition, please, for this compound: COc1cc(C)c(S(=O)(=O)N2CCOCC2)c(C)c1C -14.4

Give me measured max response, negative = inhibition, please, for this compound: COc1cccc(CN(C)C(=O)CC[C@H]2O[C@@H](n3cnc4c(NC(=O)c5ccccc5)ncnc43)[C@H](O)[C@@H]2O)c1 -1.63

Give me measured max response, negative = inhibition, please, for this compound: CCOC(=O)[C@]12CCCC=C1N(Cc1ccc3c(c1)OCO3)C(=O)[C@H](CC(=O)N1CCN(C(=O)c3ccco3)CC1)C2 -17.4

###

TESTED TARGET: Serine/threonine-protein kinase PLK1 (Homo sapiens)
ASSAY NAME: qHTS for Inhibitors of PLK1-PDB (polo-like kinase 1 - polo-box domain): Primary Screen; note: series mostly up to about 57 µM; % is set by controls: 0 for no effect and ±100 for the full control effect; nearly all actives have a fitted effect of over 65% in size
TEST CONDITIONS: Plk1 PBD binding of FITC phosphopeptide, fluorescence polarization
Screen size: about 360,000 compounds; about 10,000 (2.8%) were called active. About 4% were inconclusive and are not listed. The full list was thinned out, with actives kept by preference.
PARAMETER: max response, negative = inhibition (%)
Answer with a number only, understood to be in %.

Provide Serine/threonine-protein kinase PLK1 (Homo sapiens) max response, negative = inhibition reading for CCOc1ccc(NC(=O)C(C)N2C(=O)c3ccccc3C2=O)cc1 (stereo not drawn) . -11.1

Provide Serine/threonine-protein kinase PLK1 (Homo sapiens) max response, negative = inhibition reading for c1cc(-c2nn[nH]n2)ccc1CN1CCCCC1 . -9.14

Provide Serine/threonine-protein kinase PLK1 (Homo sapiens) max response, negative = inhibition reading for COCOCCn1cc(CN2CCS(=O)(=O)N(Cc3ccc(-c4cccc(N(C)C)c4)cc3)C(CC(C)C)C2=O)nn1 (stereo not drawn) . -14.2

Provide Serine/threonine-protein kinase PLK1 (Homo sapiens) max response, negative = inhibition reading for O=C(c1ccc(Cl)c(S(=O)(=O)N2CCCCC2)c1)N1CCCCCC1 . -9.42

Provide Serine/threonine-protein kinase PLK1 (Homo sapiens) max response, negative = inhibition reading for CC(C)Cn1cc(-c2cncc3nccn23)cn1 . -13.4

Provide Serine/threonine-protein kinase PLK1 (Homo sapiens) max response, negative = inhibition reading for C=CCC[C@@H](CCCCC)OC(=O)/C=C/[C@@H](O)[C@H](O)C[C@H](O)CC=C . -3.6

Provide Serine/threonine-protein kinase PLK1 (Homo sapiens) max response, negative = inhibition reading for CCC(C(=O)NC(C)(C)C)n1c(-c2ccccc2)nc2ccccc21 (stereo not drawn) . 0.0436

Provide Serine/threonine-protein kinase PLK1 (Homo sapiens) max response, negative = inhibition reading for Cc1ccc(CN2CCN(Cc3ccc4ncccc4c3)CC2CCO)cc1 (stereo not drawn) . -1.02

Provide Serine/threonine-protein kinase PLK1 (Homo sapiens) max response, negative = inhibition reading for CCNC(=O)C1CCCN(C(=O)c2ccc(OC)cc2OC)CC1 (stereo not drawn) . -11.4

Provide Serine/threonine-protein kinase PLK1 (Homo sapiens) max response, negative = inhibition reading for CN(C)C(CNC(=O)c1cccc(S(=O)(=O)N2CCc3ccccc3C2)c1)c1ccccc1 (stereo not drawn) . -5.08

Provide Serine/threonine-protein kinase PLK1 (Homo sapiens) max response, negative = inhibition reading for CCc1nc2c(OCc3ccc(Cl)cc3Cl)cccn2c1N(C)C(=O)C(C)C . 3.78

Provide Serine/threonine-protein kinase PLK1 (Homo sapiens) max response, negative = inhibition reading for CCc1nc2c(OCCc3cccc(OC)c3)cccn2c1N(C)C(=O)c1ccc(C)cc1 . -4.74

Provide Serine/threonine-protein kinase PLK1 (Homo sapiens) max response, negative = inhibition reading for COc1ccc(OC)c(C(O)c2ncc(-c3cccc(C(F)(F)F)c3)[nH]2)c1 (stereo not drawn) . 6.6

Provide Serine/threonine-protein kinase PLK1 (Homo sapiens) max response, negative = inhibition reading for CC(C)Oc1ccc(CN2CCC2(C)C(=O)NCc2ccc(C(F)(F)F)cc2)cc1 (stereo not drawn) . 6.37

Provide Serine/threonine-protein kinase PLK1 (Homo sapiens) max response, negative = inhibition reading for Cc1ccc(SCc2cc(=O)[nH]c(N3CCCCC3)n2)cc1 . -8.91

Provide Serine/threonine-protein kinase PLK1 (Homo sapiens) max response, negative = inhibition reading for CC(C)CCN1CCN(Cc2ccc(C(F)(F)F)cc2)CC1CCO (stereo not drawn) . 4.35

Provide Serine/threonine-protein kinase PLK1 (Homo sapiens) max response, negative = inhibition reading for Cc1cc(C)nc(SCc2nnc(SCC(=O)Nc3ncc(C)s3)n2Cc2ccco2)n1 . -1.22

Provide Serine/threonine-protein kinase PLK1 (Homo sapiens) max response, negative = inhibition reading for O=C(Nc1ccc(S(=O)(=O)Nc2ccccn2)cc1)c1ccccc1 . -2.45

Provide Serine/threonine-protein kinase PLK1 (Homo sapiens) max response, negative = inhibition reading for Cc1cc(C)n(-c2ccc(NC(=O)C3CCCCN3C(=O)c3cccs3)cc2)n1 (stereo not drawn) . -7.4

Provide Serine/threonine-protein kinase PLK1 (Homo sapiens) max response, negative = inhibition reading for CC1(C)OC(=O)C2=C(C[C@@H](C3CCCC3)O[C@@H]2c2ccc(Cl)cc2)O1 . 2.05

Provide Serine/threonine-protein kinase PLK1 (Homo sapiens) max response, negative = inhibition reading for CC(Oc1cccc(NC(=O)c2cccs2)c1)C(=O)c1ccccc1 (stereo not drawn) . -3.5

Provide Serine/threonine-protein kinase PLK1 (Homo sapiens) max response, negative = inhibition reading for CC(C)c1ccc(-c2nn[nH]n2)cc1 . -8.56

Provide Serine/threonine-protein kinase PLK1 (Homo sapiens) max response, negative = inhibition reading for CCCOC(=O)c1ccc(N2C(=O)c3ccccc3C2=O)cc1 . -2.78

Provide Serine/threonine-protein kinase PLK1 (Homo sapiens) max response, negative = inhibition reading for C=CCn1c(=S)[nH]c2nc3c(cc2c1=O)COC(C)(C)C3 . 1.98

Provide Serine/threonine-protein kinase PLK1 (Homo sapiens) max response, negative = inhibition reading for COC(=O)C1(C(=O)OC)C[C@H](c2ccccc2)N(Cc2ccccc2OC)[C@@H]1c1ccccc1 . -15.2

Provide Serine/threonine-protein kinase PLK1 (Homo sapiens) max response, negative = inhibition reading for COC(=O)[C@@]1(Sc2ccc(C)cc2)CC(=O)N(c2cccc(SC)c2)[C@@H]1c1ccccc1 . -14.8

Provide Serine/threonine-protein kinase PLK1 (Homo sapiens) max response, negative = inhibition reading for O=C(c1ccccc1F)N1CCN(S(=O)(=O)c2ccc(Br)cc2)CC1 . -0.788

Provide Serine/threonine-protein kinase PLK1 (Homo sapiens) max response, negative = inhibition reading for Cn1c(SCC(=O)Nc2nccs2)nnc1-c1cccnc1 . -6.93

Provide Serine/threonine-protein kinase PLK1 (Homo sapiens) max response, negative = inhibition reading for COc1ccc2cc(C3=CC(=O)C[C@H](c4ccc5c(c4)OCO5)C3)ccc2c1 . 4.54

Provide Serine/threonine-protein kinase PLK1 (Homo sapiens) max response, negative = inhibition reading for Cc1cc2oc(=O)cc(CN(C)Cc3ccccc3)c2cc1Cl . -6.49

Provide Serine/threonine-protein kinase PLK1 (Homo sapiens) max response, negative = inhibition reading for CC(=O)Nc1cc(-c2ccccc2F)cn2c(-c3cccc(C(F)(F)F)c3)cnc12 . -1.88

Provide Serine/threonine-protein kinase PLK1 (Homo sapiens) max response, negative = inhibition reading for S=C(NN=Cc1ccccn1)Nc1ccccn1 . -6.29

Provide Serine/threonine-protein kinase PLK1 (Homo sapiens) max response, negative = inhibition reading for CC(=O)Nc1cc(-c2ccc(N3CCN(C)CC3)cc2)cn2c(-c3cccc(C(=O)N(C)C)c3)cnc12 . -2.75

Provide Serine/threonine-protein kinase PLK1 (Homo sapiens) max response, negative = inhibition reading for COc1ccc2c(c1)CCCO[C@]21O[C@H](CCO)C[C@H](O)[C@H]1O . -7.9

Provide Serine/threonine-protein kinase PLK1 (Homo sapiens) max response, negative = inhibition reading for Cc1nnsc1S(=O)(=O)Cc1ccccc1Cl . -7.17

Provide Serine/threonine-protein kinase PLK1 (Homo sapiens) max response, negative = inhibition reading for Cc1ccc(-c2nc3c(C)cc(Br)cn3c2Cc2ccccc2)cc1 . -13.2

Provide Serine/threonine-protein kinase PLK1 (Homo sapiens) max response, negative = inhibition reading for COc1ccc(C(=O)C(OP(=O)(OC)OC)c2ccccc2OC)cc1 (stereo not drawn) . -7.71

Provide Serine/threonine-protein kinase PLK1 (Homo sapiens) max response, negative = inhibition reading for COc1ccc(C(=O)C2CCCN(C(=O)c3ccc(OC)o3)C2)c(C)c1 (stereo not drawn) . -27.3

Provide Serine/threonine-protein kinase PLK1 (Homo sapiens) max response, negative = inhibition reading for CC(=O)N1C[C@@H](CO)[C@@H](N(C)C(=O)c2ccco2)C[C@H]1c1ccccc1 . -12.5

Provide Serine/threonine-protein kinase PLK1 (Homo sapiens) max response, negative = inhibition reading for CN(C)C(=O)c1cccc(-c2cnc3c(NC=O)cc(-c4ccc(C(=O)N5CCOCC5)cc4)cn23)c1 . -14.7

Provide Serine/threonine-protein kinase PLK1 (Homo sapiens) max response, negative = inhibition reading for OCCC#Cc1ccc(N2C(c3ccsc3)=Cc3ccc(F)cc3C2c2c[nH]c3ccccc23)cc1 (stereo not drawn) . -1.41

Provide Serine/threonine-protein kinase PLK1 (Homo sapiens) max response, negative = inhibition reading for OCCNc1nc(Nc2ccc(Cl)c(Cl)c2)nc2ccccc12 . -0.568

Provide Serine/threonine-protein kinase PLK1 (Homo sapiens) max response, negative = inhibition reading for CCOC(=O)C(C)n1cnc2c(nnn2-c2cccc(OC)c2)c1=O (stereo not drawn) . 1.99
